system: L1210 leukemia ip in BDF1 mice, survival T/C; experiment: NCI In Vivo Anticancer Drug Screen. Data for tumor model L1210 Leukemia (intraperitoneal) in B6D2F1 (BDF1) mice; conditions: endpoint: mean survival time; dose: 40.0 mg/kg/injection; schedule: Q01DX001 (ip); vehicle: saline; higher = longer survival
Inconclusive results and toxic doses are left out.
Outcome Measure: T/C

| Compound | T/C |
| --- | --- |
| CCC[CH2][Sn]1([CH2]CCC)[O]C(=O)C2C(C=C(C)C)C=C(C)C(C)C2C(=O)[O]1 (centres undefined) | 96 % of control |
| Cc1cc(O)[nH]c(=O)c1 | 105 % of control |
| O=C(Nc1cccc(Cl)c1)OCC#CCN1CCCC1 | 101 % of control |

Please examine the following record next.
compound N=C(N)S/C=C/CSC(=N)N , T/C observed: 95 % of control

====

Listed here are compounds together with their documented T/C.
test system: L1210 leukemia ip in BDF1 mice, survival T/C; experiment: NCI In Vivo Anticancer Drug Screen. Data for tumor model L1210 Leukemia (intraperitoneal) in B6D2F1 (BDF1) mice; conditions: endpoint: mean survival time; dose: 75.0 mg/kg/injection; schedule: Q01DX001 (ip); vehicle: carboxymethylcellulose (CMC); higher = longer survival
Inconclusive results and toxic doses are left out.

| Compound | Outcome Measure | Recorded Measurement |
| --- | --- | --- |
| CC(O)C(Cl)(Cl)Cl (centres undefined) | T/C | 100 % of control |
| O=[N+]([O-])c1cc(Cl)[n+]([O-])c(Cl)c1 | T/C | 101 % of control |
| O=[N+]([O-])Nc1cc(Cl)nc(Cl)c1 | T/C | 105 % of control |

Proceeding to the next compound to report its T/C.
Reported T/C ( CCOC(=O)/C=C/C(=O)O ) = 86 % of control

====

Recorded T/C for the following compounds
tested on: L1210 leukemia ip in BDF1 mice, survival T/C; experiment: NCI In Vivo Anticancer Drug Screen. Data for tumor model L1210 Leukemia (intraperitoneal) in B6D2F1 (BDF1) mice; conditions: endpoint: mean survival time; dose: 200.0 mg/kg/injection; schedule: Q04DX002 (ip); vehicle: saline with Tween-80; higher = longer survival
Toxic doses and inconclusive results are not listed.

Use the examples below as a reference point.
| Compound | T/C |
| --- | --- |
| C[CH2][Ge]([CH2]C)[CH2]C.C[CH2][Ge]([CH2]C)[CH2]C.C[CH2][Ge]([CH2]C)[O][Ge]([CH2]C)[CH2]C | 106 % of control |
| CN1CCN(P(c2ccccc2)N2CCN(C)CC2)CC1 | 103 % of control |
| COc1cc(CCC(=O)O)cc(OC)c1OC | 89 % of control |
| O=C1OC(=O)C2C=CC=CC12 (stereo not given) | 103 % of control |

Lookup result for c1ccc2nc3nc4ccccc4nc3nc2c1 ; measured T/C: 100 % of control

====

tested on: L1210 leukemia ip in BDF1 mice, survival T/C; assay: NCI In Vivo Anticancer Drug Screen. Data for tumor model L1210 Leukemia (intraperitoneal) in B6D2F1 (BDF1) mice; settings: endpoint: mean survival time; dose: 100.0 mg/kg/injection; schedule: Q04DX002 (ip); vehicle: saline with Tween-80; higher = longer survival
Inconclusive results and toxic doses are left out.
Outcome Measure: T/C

Recorded results for 5 molecules are shown here.
| Molecule | Target Of Assay | T/C |
| --- | --- | --- |
| CN(C)C(=S)SCC(=O)O | L1210 leukemia ip in BDF1 mice, survival T/C | 100 % of control |
| CC1(CBr)OCCCO1 | L1210 leukemia ip in BDF1 mice, survival T/C | 95 % of control |
| NC(N)=N/C(N)=N/Nc1ccc([N+](=O)[O-])cc1[N+](=O)[O-] | L1210 leukemia ip in BDF1 mice, survival T/C | 88 % of control |
| O=C1OC(=O)C2C=CC=CC12 (centres undefined) | L1210 leukemia ip in BDF1 mice, survival T/C | 92 % of control |
| COc1ccc(NC(=O)Nc2ccccc2Cl)c(OC)c1 | L1210 leukemia ip in BDF1 mice, survival T/C | 87 % of control |

Reported T/C ( CCC(Cl)(Cl)[N+](=O)[O-] ) = 98 % of control

// recorded T/C for Cc1cccc[c]1[Sb]([c]1ccccc1C)[c]1ccccc1C : 100 % of control

Form field T/C, entry COc1cc(CCC(=O)O)cc(OC)c1OC : 116 % of control

So for C=CCCCCCCCCC , the logged T/C turned out to be 93 % of control

Reported T/C ( Oc1ccc2ccccc2c1/C=N\Nc1ccccn1 ) = 92 % of control

Form: molecule = O=C1CC(N2CCCCC2)C(=O)N1c1ccccc1 (centres undefined) ; T/C = 92 % of control

So for CCC1(CCC#N)CCc2[nH]c3ccccc3c2C1=O (centres undefined) , the logged T/C turned out to be 108 % of control

The reported T/C of the molecule CCCCS(=O)(=O)N1CCCCC1C (centres undefined) was 86 % of control

Just so you know, measured T/C for CCOc1ccc(/C=C2\N=C(c3cccc(Cl)c3)OC2=O)cc1 came out at 93 % of control
